The origin of these recorded values is the supplement of paper PMC11061612.

# System: HCC-78 (Lung Adenocarcinoma)
# procedure summary: combination Emax (second highest fraction inhibited in the dose matrix, 72 h); higher = more inhibition; extreme values may be limits of the assay
property measured: combination Emax

compound="C=CCn1c(=O)c2cnc(Nc3ccc(N4CCN(C)CC4)cc3)nc2n1-c1cccc(C(C)(C)O)n1 [AZD1775] + O=C(c1cc(Cc2n[nH]c(=O)c3ccccc23)ccc1F)N1CCN(C(=O)C2CC2)CC1 [Olaparib] (first compound max 1 µM, partner max 10 µM)" result=0.377
compound="C[C@@H](c1ccc2nccn2c1)n1nnc2ncc(-c3cnn(C)c3)nc21 [Savolitinib] + CC1(C)CCC(CN2CCN(c3ccc(C(=O)NS(=O)(=O)c4ccc(NCC5CCOCC5)c([N+](=O)[O-])c4)c(Oc4cnc5[nH]ccc5c4)c3)CC2)=C(c2ccc(Cl)cc2)C1 [Venetoclax] (first compound max 1 µM, 7x7, partner max 1 µM)" result=0.145
compound="CS(=O)(=O)CCNCc1ccc(-c2ccc3ncnc(Nc4ccc(OCc5cccc(F)c5)c(Cl)c4)c3c2)o1 [Lapatinib] + Cn1cnc2c(F)c(Nc3ccc(Br)cc3Cl)c(C(=O)NOCCO)cc21 [Selumetinib] (first compound max 10 µM, 7x7, partner max 10 µM)" result=0.228
compound="CCc1c2c(nc3ccc(O)cc13)-c1cc3c(c(=O)n1C2)COC(=O)[C@]3(O)CC [SN-38] + O=C(c1cc(Cc2n[nH]c(=O)c3ccccc23)ccc1F)N1CCN(C(=O)C2CC2)CC1 [Olaparib] (first compound max 0.3 µM, 7x7, partner max 10 µM)" result=0.898
compound="COc1nnc2ccc(N3CCC(c4ccc(OCCN5CCN(C)C(=O)[C@H]5C)cc4)CC3)nn12 [AZD5153] + CCN(CCO)CCCOc1ccc2c(Nc3cc(CC(=O)Nc4cccc(F)c4)[nH]n3)ncnc2c1 [AZD2811] (first compound max 1 µM, 7x7, partner max 1 µM)" result=0.489
compound="NC1(C(=O)N[C@@H](CCO)c2ccc(Cl)cc2)CCN(c2ncnc3[nH]ccc23)CC1 [Capivasertib] + CC(=O)c1c(C)c2cnc(Nc3ccc(N4CCNCC4)cn3)nc2n(C2CCCC2)c1=O [Palbociclib] (first compound max 10 µM, 7x7, partner max 10 µM)" result=0.344
compound="Cc1c2c(nn1C)CSCc1cc(n(C)n1)CSc1cc(c3ccccc3c1)OCCCc1c(C(=O)O)n(C)c3c-2c(Cl)ccc13 [AZD5991] + CS(=O)(=O)CCNCc1ccc(-c2ccc3ncnc(Nc4ccc(OCc5cccc(F)c5)c(Cl)c4)c3c2)o1 [Lapatinib] (first compound max 1 µM, 7x7, partner max 10 µM)" result=0.173
compound="CN(C)CCCOc1ccc(-c2ccc3ncc4c(c3c2)n(C2CCOCC2)c(=O)n4C)cn1 [AZD0156] + CCN(CCO)CCCOc1ccc2c(Nc3cc(CC(=O)Nc4cccc(F)c4)[nH]n3)ncnc2c1 [AZD2811] (first compound max 1 µM, 7x7, partner max 1 µM)" result=0.159
compound="NC1(C(=O)N[C@@H](CCO)c2ccc(Cl)cc2)CCN(c2ncnc3[nH]ccc23)CC1 [Capivasertib] + CCN(CCO)CCCOc1ccc2c(Nc3cc(CC(=O)Nc4cccc(F)c4)[nH]n3)ncnc2c1 [AZD2811] (first compound max 10 µM, 7x7, partner max 1 µM)" result=0.349
compound="O=C(c1cc(Cc2n[nH]c(=O)c3ccccc23)ccc1F)N1CCN(C(=O)C2CC2)CC1 [Olaparib] + COc1nnc2ccc(N3CCC(c4ccc(OCCN5CCN(C)C(=O)[C@H]5C)cc4)CC3)nn12 [AZD5153] (first compound max 10 µM, 7x7, partner max 1 µM)" result=0.325
compound="C[C@@H](c1ccc2nccn2c1)n1nnc2ncc(-c3cnn(C)c3)nc21 [Savolitinib] + Cc1c2c(nn1C)CSCc1cc(n(C)n1)CSc1cc(c3ccccc3c1)OCCCc1c(C(=O)O)n(C)c3c-2c(Cl)ccc13 [AZD5991] (first compound max 1 µM, 7x7, partner max 1 µM)" result=0.18
compound="C[C@@H](Nc1cc(F)cc(F)c1)c1cc(C(=O)N(C)C)cc2c(=O)cc(N3CCOCC3)oc12 [AZD8186] + CC(=O)c1c(C)c2cnc(Nc3ccc(N4CCNCC4)cn3)nc2n(C2CCCC2)c1=O [Palbociclib] (first compound max 10 µM, 7x7, partner max 10 µM)" result=0.365
compound="CN(CCO)CC[C@H](CSc1ccccc1)Nc1ccc(S(=O)(=O)NC(=O)c2ccc(N3CCC([C@@H](O)c4ccccc4-c4ccc(Cl)cc4)CC3)cc2)cc1S(=O)(=O)C(F)(F)F [AZD4320] + C1CN(CCC1(C(=O)N[C@@H](CCO)C2=CC=C(C=C2)Cl)N)C3=NC=NC4=C3C=CN4 [Capivasertib] (first compound max 1 µM, 7x7, partner max 3 µM)" result=0.31
